tested.target: cloned human MC4R (Homo sapiens)
Construct: made in house; host or cells: Hi5 insect cells (baculovirus infection); membrane preparation
measurement.protocol: Membrane binding assay: competitive inhibition of [125I]NDP-α-MSH binding
conditions.used: at 10 μM; [125I]NDP-α-MSH displacement; read-out: Displacement Rate (%) (at 10 μM)
property.label: inhibition at 10 µM

Recorded results for 6 compounds are shown here.
- smiles.record: "N[C@@H](Cc1ccc(OCc2ccccc2)cc1)C(=O)N1CCCN(Cc2ccccc2C(F)(F)F)CC1"
  tested.target: "cloned human MC4R (Homo sapiens)"
  inhibition at 10 µM: "91 to 100%"
- smiles.record: "COc1cc(OC)c(CN2CCCN(C(=O)[C@@H](N)Cc3ccc(OCc4ccccc4)cc3)CC2)cc1Br"
  tested.target: "cloned human MC4R (Homo sapiens)"
  inhibition at 10 µM: "71 to 90%"
- smiles.record: "Cc1cccc(CN2CCN(C(=O)[C@@H](N)Cc3ccc(OCc4ccccc4)cc3)CC2)c1"
  tested.target: "cloned human MC4R (Homo sapiens)"
  inhibition at 10 µM: "35 to 70%"
- smiles.record: "N[C@@H](Cc1ccc(OCc2ccccc2)cc1)C(=O)N1CCN(CC(c2ccccc2)c2ccccc2)CC1"
  tested.target: "cloned human MC4R (Homo sapiens)"
  inhibition at 10 µM: "91 to 100%"
- smiles.record: "Cc1ccc(S(=O)(=O)n2cc(CN3CCN(C(=O)[C@@H](N)Cc4ccc(OCc5ccccc5)cc4)CC3)c3ccccc32)cc1"
  tested.target: "cloned human MC4R (Homo sapiens)"
  inhibition at 10 µM: "91 to 100%"
- smiles.record: "CCN[C@@H](Cc1ccc(OCc2ccccc2)cc1)C(=O)N1CCN(Cc2cccc(Cl)c2Cl)CC1"
  tested.target: "cloned human MC4R (Homo sapiens)"
  inhibition at 10 µM: "91 to 100%"

Field: next compound
Inquiry: Provide inhibition at 10 µM, recorded with cloned human MC4R (Homo sapiens), of CCOc1ccc(COc2ccc(C[C@H](N)C(=O)N3CCN(Cc4cccc(Cl)c4Cl)CC3)cc2)cc1
Reply text: 91 to 100%

----------
The entries below come with measured pIC50 values attached.
tested.target: cloned human MC4R (Homo sapiens, UniProt P32245)
Construct: made in house; host or cells: Hi5 insect cells (baculovirus infection); membrane preparation
Sequence (P32245 whole entry): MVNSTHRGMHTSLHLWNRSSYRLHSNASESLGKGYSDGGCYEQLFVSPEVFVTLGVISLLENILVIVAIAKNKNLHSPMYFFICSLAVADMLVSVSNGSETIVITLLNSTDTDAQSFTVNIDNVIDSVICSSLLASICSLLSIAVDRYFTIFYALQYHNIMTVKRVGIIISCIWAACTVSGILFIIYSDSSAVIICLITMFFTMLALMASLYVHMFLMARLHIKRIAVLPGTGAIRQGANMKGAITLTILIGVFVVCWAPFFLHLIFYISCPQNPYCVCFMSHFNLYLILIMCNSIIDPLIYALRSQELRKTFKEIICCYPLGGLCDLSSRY
measurement.protocol: Membrane binding assay: competitive inhibition of [125I]NDP-α-MSH binding
conditions.used: read-out: MC4R IC50
pIC50: −log10 of the molar value.

Please review the following examples before continuing.
- compound: "CC(=O)c1cccc(-c2ccc(C[C@H](N)C(=O)N3CCN(Cc4cccc(Cl)c4Cl)CC3)cc2)c1"
  pIC50: "5.52 to 5.82"
- compound: "CC(C)CN1CCN(C(=O)[C@@H](N)Cc2ccc(OCc3ccccc3)cc2)CC1"
  pIC50: "< 5.52"
- compound: "COc1cc(-c2ccc(C[C@H](N)C(=O)N3CCN(Cc4cccc(Cl)c4Cl)CC3)cc2)cc(OC)c1OC"
  pIC50: "< 5.52"
- compound: "N[C@@H](Cc1ccc(OCCc2ccccc2-c2ccccc2)cc1)C(=O)N1CCN(Cc2cccc(Cl)c2Cl)CC1"
  pIC50: "> 5.82"
- compound: "COc1ccc(CCCOc2ccc(C[C@H](N)C(=O)N3CCN(Cc4cccc(Cl)c4Cl)CC3)cc2)cc1OC"
  pIC50: "> 5.82"
- compound: "CC(C)c1ccc(-c2ccc(C[C@H](N)C(=O)N3CCN(Cc4cccc(Cl)c4Cl)CC3)cc2)cc1"
  pIC50: "< 5.52"

// moving on: another record for pIC50
Inquiry: Entry Cc1ccc(Oc2ccc(C[C@H](N)C(=O)N3CCN(Cc4cccc(Cl)c4Cl)CC3)cc2)cc1 needs its pIC50 filled in; supply it.
Reply text: > 5.82

----------
tested.target: cloned human MC4R (Homo sapiens)
Construct: made in house; host or cells: Hi5 insect cells (baculovirus infection); membrane preparation
measurement.protocol: Membrane binding assay: competitive inhibition of [125I]NDP-α-MSH binding
conditions.used: at 10 μM; [125I]NDP-α-MSH displacement; read-out: Displacement Rate (%) (at 10 μM)
Experimental: Hi5 cells are infected using the following protocol: Cells at a density of 1×10^6 cells/mL are spun down at 1000 rpm (Beckman GS-6KR centrifuge) for 10 minutes. Cells are resuspended in 10% of their original volume in a sterile 50 mL conical centrifuge tube wrapped with aluminum foil. […] Protein content is determined (Bradford, Bio-Rad Protein Assay). […] Dose-response curves are fitted by […] analyses and IC50 values are calculated using ExcelFit.
Each record here notes measured inhibition at 10 µM.

- molecule: "N[C@@H](Cc1ccc(OCc2ccccc2)cc1)C(=O)N1CCN(Cc2ccc(OCc3ccc([N+](=O)[O-])cc3)cc2)CC1"
  inhibition at 10 µM: "71 to 90%"
- molecule: "N[C@@H](Cc1ccc(OCc2ccccc2)cc1)C(=O)N1CCCN(Cc2ccnc3ccccc23)CC1"
  inhibition at 10 µM: "71 to 90%"

Inquiry: Quick one: give measured inhibition at 10 µM for N[C@@H](Cc1ccc(-c2cccc3ccccc23)cc1)C(=O)N1CCN(Cc2cccc(Cl)c2Cl)CC1
Reply text: 91 to 100%

Inquiry: Specify reported inhibition at 10 µM for the molecule shown: N[C@@H](Cc1ccc(OCc2ccccc2)cc1)C(=O)N1CCCN(Cc2ccncc2)CC1
Reply text: 35 to 70%

Inquiry: Provide only the value of recorded inhibition at 10 µM for N[C@@H](Cc1ccc(OCc2ccccc2)cc1)C(=O)N1CCCN(Cc2ccc(F)cc2)CC1
Reply text: 35 to 70%

Inquiry: Please give measured inhibition at 10 µM of the following entry: N[C@@H](Cc1ccc(-c2ccc(OC(F)(F)F)cc2)cc1)C(=O)N1CCN(Cc2cccc(Cl)c2Cl)CC1
Reply text: 91 to 100%

Inquiry: Note inhibition at 10 µM for the molecule shown: CCCCCOc1ccc(CN2CCN(C(=O)[C@@H](N)Cc3ccc(OCc4ccccc4)cc3)CC2)cc1
Reply text: 91 to 100%

Inquiry: Please look at this molecule and report its inhibition at 10 µM: N[C@@H](Cc1ccc(OCc2ccccc2)cc1)C(=O)N1CCCN(C2CCC(c3ccccc3)CC2)CC1 (stereo partly drawn)
Reply text: 71 to 90%

Inquiry: Read off the recorded inhibition at 10 µM for N[C@@H](Cc1ccc(OCc2ccccc2)cc1)C(=O)N1CCN(Cc2cc(F)ccc2F)CC1
Reply text: 35 to 70%

Inquiry: Quote inhibition at 10 µM reported for N[C@@H](Cc1ccc(OCc2ccccc2)cc1)C(=O)N1CCN(Cc2ccccc2-c2ccccc2)CC1 please.
Reply text: 71 to 90%

Inquiry: Check the records and state inhibition at 10 µM for COc1cc(CN2CCCN(C(=O)[C@@H](N)Cc3ccc(OCc4ccccc4)cc3)CC2)cc(Br)c1OC
Reply text: 35 to 70%

----------
tested.target: cloned human MC4R (Homo sapiens, UniProt P32245)
Construct: made in house; host or cells: Hi5 insect cells (baculovirus infection); membrane preparation
measurement.protocol: Membrane binding assay: competitive inhibition of [125I]NDP-α-MSH binding
conditions.used: at 10 μM; [125I]NDP-α-MSH displacement; read-out: Displacement Rate (%) (at 10 μM)
property.label: inhibition at 10 µM

Study these solved cases before continuing.
- compound: "CCc1ccc(CN2CCCN(C(=O)[C@@H](N)Cc3ccc(OCc4ccccc4)cc3)CC2)cc1 [Example 38]"
  property.label: "inhibition at 10 µM"
  assay.value: "71 to 90%"
- compound: "N[C@@H](Cc1ccc(OCc2ccccc2)cc1)C(=O)N1CCN(Cc2ccccc2Sc2ccc(Cl)cc2)CC1 [Example 82]"
  property.label: "inhibition at 10 µM"
  assay.value: "91 to 100%"
- compound: "N[C@@H](Cc1ccc(OCc2ccccc2)cc1)C(=O)N1CCN(C2CCN(CCc3ccccc3)CC2)CC1 [Example 139]"
  property.label: "inhibition at 10 µM"
  assay.value: "35 to 70%"
- compound: "N[C@@H](Cc1ccc(OCc2ccccc2)cc1)C(=O)N1CCN(Cc2ccccc2[N+](=O)[O-])CC1 [Example 111]"
  property.label: "inhibition at 10 µM"
  assay.value: "71 to 90%"
- compound: "N[C@@H](Cc1ccc(-c2cc(C(F)(F)F)cc(C(F)(F)F)c2)cc1)C(=O)N1CCN(Cc2cccc(Cl)c2Cl)CC1 [Example 297]"
  property.label: "inhibition at 10 µM"
  assay.value: "91 to 100%"

Inquiry: State, for cloned human MC4R (Homo sapiens, UniProt P32245), measured inhibition at 10 µM of the compound listed here: N[C@@H](Cc1ccc(-c2ccccc2C(F)(F)F)cc1)C(=O)N1CCN(Cc2cccc(Cl)c2Cl)CC1 [Example 315]
Reply text: 91 to 100%

Inquiry: Report value only: inhibition at 10 µM, cloned human MC4R (Homo sapiens, UniProt P32245), N[C@@H](Cc1ccc(OCc2ccccc2)cc1)C(=O)N1CCN(Cc2ccc3c(c2)Cc2ccccc2-3)CC1 [Example 83]
Reply text: 91 to 100%
